Hey, just so you know, these numbers are from ChEMBL document CHEMBL4513216.

Listed here: items and their measured INHIBITION.
Test system: Plasmodium berghei
Run Description: Screen against P. berghei liver stage (PbLuc), transformed with Luciferase, at 10uM
Format: functional, HepG2
Cond: tested at 10 uM
In all, about 69,000 compounds went through this assay and about 8,600 (12%) showed an effect of 50% or more. Shown is part of a subset that was picked to be rich in strong results.
A complete answer gives the number and then names the unit.

INHIBITION recorded for this compound, COC(=O)c1ccc(NC(C)c2ccc3c(c2)CC(=O)N3)nn1 (stereo not drawn) , is -4.12%

INHIBITION recorded for this compound, Cc1nc(SCC(=O)Nc2ccc(C(N)=O)cc2)c(C#N)c(C)c1C , is 48.7%

INHIBITION recorded for this compound, CCCc1noc(C2CCN(C(=O)CCn3nc(C)cc3C)CC2)n1 , is 36.6%

INHIBITION recorded for this compound, O=C(NCCNc1ncccn1)C1CC(=O)N(Cc2ccco2)C1 (stereo not drawn) , is 2.3%

INHIBITION recorded for this compound, CNC(=O)c1nc2c(s1)CCN(C(=O)c1ccccc1)CC2 , is 1.9%

* * *

Listed here: items and their measured INHIBITION.
Tested on: Plasmodium berghei
Run Description: Screen against P. berghei liver stage (PbLuc), transformed with Luciferase, at 10uM
Type: functional, HepG2
Cond: tested at 10 uM
In all, about 69,000 compounds went through this assay and about 8,600 (12%) showed an effect of 50% or more. The list comes from a sample in which strong results are over-represented; it also holds close analogues and randomly drawn compounds.
Dear colleague, please return just the value in %, with no unit written.

Cc1nnc(C(C)N2CCc3[nH]c4ccccc4c3C2)o1 (configuration not stated) : 32

Now examine the next entry.
INHIBITION recorded for this molecule, c1cnn(Cc2ccc(CN3CCC4(CCCNC4)C3)cc2)c1 (configuration not stated) , is 3.96

* * *

Tested on: Plasmodium berghei
Run Description: Screen against P. berghei liver stage (PbLuc), transformed with Luciferase, at 10uM
Format: functional, HepG2
Cond: tested at 10 uM
Screen size: about 69,000 compounds; about 8,600 (12%) showed an effect of 50% or more. What follows is part of a selection rich in strong results, with near analogues and random picks from the rest.
Endpoint: INHIBITION
A complete answer gives the number and then names the unit.

Below are worked cases with known answers.
COCCN1CCC(CN(CC2CCCO2)C(=O)C2CCOCC2)CC1 (stereo not given) : 29.9%
O=C(Nc1cnccn1)[C@@H]1CC[C@@H]2[C@@H](CCN2Cc2nccs2)O1 : 43.4%
COc1cc(CCC(=O)N2CCC(c3cc4ncccc4[nH]3)CC2)on1 : -26.4%

INHIBITION recorded for this compound, O=C(NCC1CC1)[C@H]1CC[C@@H]2[C@@H](CCN2Cc2ccoc2)O1 , is 26.8%

INHIBITION recorded for this compound, Cc1nn(C)c(Cl)c1C1CCCN1C(=O)c1ccoc1C (stereo not given) , is -29.1%

INHIBITION recorded for this compound, O=C(Cc1ccccn1)N1CCCC(c2nccn2CC2CCC2)C1 (stereo not given) , is 10.7%

INHIBITION recorded for this compound, Cc1ccc(C(=O)N2CCO[C@H]3[C@H](OCCN(C)C)CC[C@@H]32)o1 , is -26.1%

INHIBITION recorded for this compound, Cc1csc(CN2CC[C@H]3O[C@H](C(=O)Nc4cccnc4)CC[C@H]32)n1 , is 81.5%

INHIBITION recorded for this compound, COc1ccc(CN2CC[C@H]3O[C@@H](C(=O)NCC4CC4)CC[C@H]32)cc1 , is 53%

INHIBITION recorded for this compound, CNC(=O)C1(Cc2cc(C(C)C)no2)CCN(Cc2cccnc2)C1 (stereo not given) , is 13.125%
